# TARGET: human plasma kallikrein (Homo sapiens, UniProt P03952)
# Sequence (P03952 391-638 limits assumed): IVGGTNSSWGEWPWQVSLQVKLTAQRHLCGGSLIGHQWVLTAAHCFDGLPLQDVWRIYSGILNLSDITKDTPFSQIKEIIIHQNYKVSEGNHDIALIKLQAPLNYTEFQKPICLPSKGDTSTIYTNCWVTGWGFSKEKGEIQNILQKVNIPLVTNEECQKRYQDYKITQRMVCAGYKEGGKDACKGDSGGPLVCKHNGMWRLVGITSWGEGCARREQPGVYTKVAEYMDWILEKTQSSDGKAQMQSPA
# Sequence (P03952 20-390 partner limits assumed): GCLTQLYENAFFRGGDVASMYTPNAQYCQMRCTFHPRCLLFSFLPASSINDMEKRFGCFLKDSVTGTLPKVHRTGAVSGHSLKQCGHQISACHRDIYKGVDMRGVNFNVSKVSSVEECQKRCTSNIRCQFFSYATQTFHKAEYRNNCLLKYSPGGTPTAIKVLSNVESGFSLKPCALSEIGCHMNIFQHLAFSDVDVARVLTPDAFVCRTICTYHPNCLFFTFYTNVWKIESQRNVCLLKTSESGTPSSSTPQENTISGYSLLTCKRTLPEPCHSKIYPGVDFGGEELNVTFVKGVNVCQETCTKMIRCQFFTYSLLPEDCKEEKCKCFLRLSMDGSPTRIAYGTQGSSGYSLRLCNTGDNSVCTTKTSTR
# EXPERIMENTAL_DETAILS: Kallikrein inhibition assay utilizing a quenched AMC peptide substrate (FLINT)
# RUN_PARAMETERS: 30 min preincubation, 50 μM Z-Gly-Pro-Arg-AMC, 2 nM kallikrein
Labelling: IC50 reported below 0.5 µM becomes MET; at or above becomes NOT MET.

- COMPOUND: "Nc1ccc(-c2[nH]c(C3CCc4c5c(cc(=O)n43)-c3cc(Cl)ccc3CC3(CC3)NC5=O)nc2F)c(F)n1 (centres unmarked)"
  CLASS_LABEL: "NOT MET"

I wonder whether O=C1NC2(CC2)Cc2ccc(Cl)c(F)c2-c2cc(=O)n(C(CC3CC3)c3ncc(-c4ccc(F)cc4)[nH]3)cc21 (single isomer, unassigned) [Compound 65] has IC50 below 0.5 µM. Can you tell? NOT MET

I wonder whether Cn1cc(-c2cnc(C(CC3CC3)n3cc4c(cc3=O)-c3c(ccc(Cl)c3F)CC3(CC3)NC4=O)[nH]2)ccc1=O (single isomer, unassigned) [Compound 63] has IC50 below 0.5 µM. Can you tell? NOT MET

I wonder whether O=C1NC2(CC2)Cc2ccc(Cl)c(F)c2-c2cc(=O)n3c(c21)CC[C@@H]3c1ncc(-c2ccc3scnc3c2)[nH]1 (stereo in doubt) has IC50 below 0.5 µM. Can you tell? MET

I wonder whether Cc1nc2cc(-c3cnc([C@H]4CCc5c6c(cc(=O)n54)-c4c(ccc(Cl)c4F)CC4(CC4)NC6=O)[nH]3)ccc2s1 (stereo in doubt) has IC50 below 0.5 µM. Can you tell? MET
